ASSAY_PROCEDURE: Selectivity index, ratio of CC50 for cytotoxicity against mouse NCTC Fibroblast cells assessed as inhibition of cell growth to EC50 for antitrypanosomal activity against Trypanosoma cruzi trypomastigotes assessed as parasite growth inhibition
Format: toxicity, cell-based
CONDITION_LABEL: read-out: Ratio CC50/EC50
ASSAY_METRIC: selectivity ratio

Record excerpt, results attached:
[[record]]
molecule = "CCCCC(CC)CNC(=O)c1ccc(Cl)cc1 (stereo not given)"
observed = "> 9.7"

[[record]]
molecule = "CCC/C=C/CCCOC(=O)c1ccc(F)cc1"
observed = "> 9.6"

[[record]]
molecule = "CCC/C=C/CCCNC(=O)c1ccc(F)cc1"
observed = "> 2.8"

[[record]]
molecule = "CCCCC(CC)COC(=O)c1ccc([N+](=O)[O-])cc1 (stereo not given)"
observed = "> 17.4"

[[record]]
molecule = "CCC/C=C/CCCOC(=O)c1ccccc1"
observed = "> 2.6"


Task: For `CCC/C=C/CCCNC(=O)c1ccccc1` , what is its reported selectivity ratio?
Result: > 2.8

Task: Please give the result for CCCCC(CC)COC(=O)c1ccc(F)cc1 (stereo not given) too.
Result: > 4.7

Task: Do the same for `O=C(Cn1ccnc1[N+](=O)[O-])NCc1ccccc1` please
Result: > 16

Task: Try `CCC/C=C/CCCNC(=O)c1ccc(Cl)cc1` next.
Result: > 7

Task: Ok, now `CCC/C=C/CCCOC(=O)c1ccc(C)cc1`
Result: > 17.1

Sourced from ChEMBL document CHEMBL5252587
